Where these numbers come from: patent US5250679A

Task for the reader: assign each of the following compounds its reported log10(IC50).
- ASSAYED_SYSTEM: GP IIb IIIa (Homo sapiens, UniProt P05106+P08514)
- Construct: from tissue; host or cells: outdated human platelets
- Sequence (P08514 32-887 limits assumed): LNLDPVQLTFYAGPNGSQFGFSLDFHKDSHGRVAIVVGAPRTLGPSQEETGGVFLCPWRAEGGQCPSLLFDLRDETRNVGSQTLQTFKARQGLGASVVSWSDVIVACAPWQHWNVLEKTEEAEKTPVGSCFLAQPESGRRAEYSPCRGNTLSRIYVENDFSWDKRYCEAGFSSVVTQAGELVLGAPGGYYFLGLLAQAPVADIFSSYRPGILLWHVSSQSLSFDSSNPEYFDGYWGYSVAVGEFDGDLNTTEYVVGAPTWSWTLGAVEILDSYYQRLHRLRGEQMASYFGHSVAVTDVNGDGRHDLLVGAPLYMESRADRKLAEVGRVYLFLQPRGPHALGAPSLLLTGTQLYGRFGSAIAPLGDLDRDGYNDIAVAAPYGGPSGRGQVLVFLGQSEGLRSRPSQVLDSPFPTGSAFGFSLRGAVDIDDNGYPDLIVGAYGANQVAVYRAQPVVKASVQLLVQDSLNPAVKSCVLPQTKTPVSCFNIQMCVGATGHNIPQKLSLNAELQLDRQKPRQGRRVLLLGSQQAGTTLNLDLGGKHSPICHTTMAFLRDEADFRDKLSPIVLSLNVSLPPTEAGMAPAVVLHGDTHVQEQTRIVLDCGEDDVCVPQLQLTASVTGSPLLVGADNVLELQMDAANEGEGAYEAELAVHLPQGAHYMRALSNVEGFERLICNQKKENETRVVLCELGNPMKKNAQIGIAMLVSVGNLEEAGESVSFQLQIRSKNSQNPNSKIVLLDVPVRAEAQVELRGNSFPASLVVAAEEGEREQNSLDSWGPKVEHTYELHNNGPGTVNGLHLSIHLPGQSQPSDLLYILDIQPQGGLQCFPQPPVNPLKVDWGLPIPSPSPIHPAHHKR
- Sequence (P08514 891-1039 partner limits assumed): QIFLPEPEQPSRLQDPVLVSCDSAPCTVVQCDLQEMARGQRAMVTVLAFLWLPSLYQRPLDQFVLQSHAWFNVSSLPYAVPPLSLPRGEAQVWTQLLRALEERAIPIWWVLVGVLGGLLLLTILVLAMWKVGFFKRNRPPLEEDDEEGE
- Sequence (P05106 27-788): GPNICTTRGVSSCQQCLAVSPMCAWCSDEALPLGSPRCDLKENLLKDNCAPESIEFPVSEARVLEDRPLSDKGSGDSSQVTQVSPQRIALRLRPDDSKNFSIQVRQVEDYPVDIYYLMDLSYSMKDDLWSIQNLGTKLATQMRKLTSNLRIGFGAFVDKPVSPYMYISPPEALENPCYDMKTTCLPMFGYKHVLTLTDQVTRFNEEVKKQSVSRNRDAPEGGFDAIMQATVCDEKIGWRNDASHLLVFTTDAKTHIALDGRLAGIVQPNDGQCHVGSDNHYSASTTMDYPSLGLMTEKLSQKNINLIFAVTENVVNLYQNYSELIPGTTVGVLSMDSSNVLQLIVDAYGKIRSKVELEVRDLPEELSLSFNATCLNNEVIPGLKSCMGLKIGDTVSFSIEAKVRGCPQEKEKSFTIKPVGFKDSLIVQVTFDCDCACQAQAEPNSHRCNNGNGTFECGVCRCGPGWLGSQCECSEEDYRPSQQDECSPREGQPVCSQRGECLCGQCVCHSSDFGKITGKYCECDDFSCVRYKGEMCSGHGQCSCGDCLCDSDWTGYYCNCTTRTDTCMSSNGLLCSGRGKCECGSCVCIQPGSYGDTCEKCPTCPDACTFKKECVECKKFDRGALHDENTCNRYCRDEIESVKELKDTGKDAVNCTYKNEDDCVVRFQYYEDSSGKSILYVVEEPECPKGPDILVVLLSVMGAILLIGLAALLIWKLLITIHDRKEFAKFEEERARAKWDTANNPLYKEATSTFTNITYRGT
- PROTOCOL_NOTES: GP IIb IIIa -von Willebrand factor (vWF) ELISA Assay (vWF/IIbIIIa)
- Assay type: binding
- STUDY_CONDITIONS: Example 30, G # table
// stored as log10 of IC50 expressed in µM

Task: Entry under review: N=C(N)NCCCC#Cc1ccc2c(c1)C(=O)N(CCC(=O)O)CC(=O)N2Cc1cccc([N+](=O)[O-])c1 [Cmpd 36] . Reported log10(IC50)?
Output: -3.40

Task: Same question, CN1C(=O)CN(CCC(=O)O)C(=O)c2cc(CCCCCN)ccc21 [Cmpd 27] this time
Output: -0.11

Task: Same question, CN1C(=O)CN(CCC(=O)O)C(=O)c2cc(C#CCCCN)ccc21 [Cmpd 33] this time
Output: -0.41

Task: Let us now turn to CN1C(=O)CN(CCC(=O)O)C(=O)c2cc(CCCCNC(=N)N)ccc21 [Cmpd 20]
Output: -1.02

Task: For CN1C(=O)CN(CCC(=O)O)C(=O)c2cc(CCCCCNC(=N)N)ccc21 [Cmpd 28] then?
Output: -1.62

* * *

Exercise: state measured pIC50 for each of the compounds provided.
- ASSAYED_SYSTEM: GP IIb IIIa (Homo sapiens, UniProt P05106+P08514)
- Construct: from tissue; host or cells: outdated human platelets
- PROTOCOL_NOTES: Fibrinogen-GP IIb IIIa Receptor ELISA Binding Assay (Fg/IIbIIIa)
- STUDY_CONDITIONS: Example 29, Cmpd # 1-105; read-out: IC50 Fg/IIbI
- Method: Briefly, microtiter plates are coated with fibrinogen (10 mg/ml) and then blocked with TACTS buffer containing 0.5% bovine serum albumin (BSA). […] After another wash a goat anti-mouse IgG conjugated to horseradish peroxidase is added. […] The reaction is stopped with 1N sulfuric acid and the absorbance at 492 nm is recorded. […] The optical density at 492 nm vs 405 nm is recorded and IC50 values are determined.
Where a name gives a salt, the structure may show the parent alone.
API: returns pIC50 as number; meaning -log10 of concentration in mol/L.

Task: What value of measured pIC50 is listed for CN1C(=O)CN(C(CC(=O)O)c2ccccc2)C(=O)c2cc(CCCCCCNC(=N)N)ccc21 (centres unmarked) [Cmpd 52] ?
Output: 6.41

Task: Lookup COc1ccc(CN2C(=O)CN(CCC(=O)O)C(=O)c3cc(CCCCCN)ccc32)cc1 [Cmpd 80, trifluoroacetate]
Output: 6.80

Task: Lookup N=C(N)NCCCCCCc1ccc2c(c1)C(=O)N(CCC(=O)O)CC(=O)N2Cc1ccc2ccccc2c1 [Cmpd 86]
Output: 7.26

Task: Lookup NCCCCCCc1ccc2c(c1)C(=O)N(CCC(=O)O)CC(=O)N2Cc1cccc2ccccc12 [Cmpd 82]
Output: 7.82

Task: // same read-out, input: NCCCC#Cc1ccc2c(c1)C(=O)N(CCC(=O)O)CC(=O)N2Cc1ccc(F)cc1F [Cmpd 97]
Output: 6.89

Task: Request: CN1C(=O)CN(CCC(=O)O)C(=O)c2cc(CCCCCN)ccc21 [Cmpd 27]
Output: 5.72

Task: Another compound: CN1C(=O)CN(CCC(=O)O)C(=O)c2cc(CCc3cccc(N)c3)ccc21 [Cmpd 47]
Output: 5.00

Task: Could you do the same for CC(CC(=O)O)N1CC(=O)N(C)c2ccc(C#CCCCN)cc2C1=O (centres unmarked) [Cmpd 37] , please?
Output: 7.21

* * *

- ASSAYED_SYSTEM: GP IIb IIIa (Homo sapiens, UniProt P05106+P08514)
- Construct: from tissue; host or cells: outdated human platelets
- PROTOCOL_NOTES: Fibrinogen-GP IIb IIIa Receptor ELISA Binding Assay (Fg/IIbIIIa)
- STUDY_CONDITIONS: Examples 29 and 30, Cmpd # tables; read-out: IC50 (μM) Fg/IIbIIIa
Could you please report measured IC50 for the items listed next?
Provide only the numeric value, understood in µM.

Task: Name the recorded IC50 for N=C(N)NCCCC#Cc1cccc(C(=O)NCCC(=O)O)c1 [Cmpd 162] .
Output: 1

Task: // next record NCCCCCCc1ccc2c(c1)C(=O)N(CCC(=O)O)CC(=O)N2CCCCCN [Cmpd 125]
Output: 0.064

Task: Try this molecule next: NCCCCCCc1ccc2c(c1)C(=O)N(CCC(=O)O)CC(=O)N2Cc1cccc(NC(=O)CCCCCN)c1 [Cmpd 116]
Output: 0.011

* * *

- ASSAYED_SYSTEM: Human Vitronectin receptor (av b3) (Homo sapiens, UniProt P05106+P06756)
- Construct: is purified from human placenta; from tissue; host or cells: human placenta
- Sequence (P06756 31-889 limits assumed): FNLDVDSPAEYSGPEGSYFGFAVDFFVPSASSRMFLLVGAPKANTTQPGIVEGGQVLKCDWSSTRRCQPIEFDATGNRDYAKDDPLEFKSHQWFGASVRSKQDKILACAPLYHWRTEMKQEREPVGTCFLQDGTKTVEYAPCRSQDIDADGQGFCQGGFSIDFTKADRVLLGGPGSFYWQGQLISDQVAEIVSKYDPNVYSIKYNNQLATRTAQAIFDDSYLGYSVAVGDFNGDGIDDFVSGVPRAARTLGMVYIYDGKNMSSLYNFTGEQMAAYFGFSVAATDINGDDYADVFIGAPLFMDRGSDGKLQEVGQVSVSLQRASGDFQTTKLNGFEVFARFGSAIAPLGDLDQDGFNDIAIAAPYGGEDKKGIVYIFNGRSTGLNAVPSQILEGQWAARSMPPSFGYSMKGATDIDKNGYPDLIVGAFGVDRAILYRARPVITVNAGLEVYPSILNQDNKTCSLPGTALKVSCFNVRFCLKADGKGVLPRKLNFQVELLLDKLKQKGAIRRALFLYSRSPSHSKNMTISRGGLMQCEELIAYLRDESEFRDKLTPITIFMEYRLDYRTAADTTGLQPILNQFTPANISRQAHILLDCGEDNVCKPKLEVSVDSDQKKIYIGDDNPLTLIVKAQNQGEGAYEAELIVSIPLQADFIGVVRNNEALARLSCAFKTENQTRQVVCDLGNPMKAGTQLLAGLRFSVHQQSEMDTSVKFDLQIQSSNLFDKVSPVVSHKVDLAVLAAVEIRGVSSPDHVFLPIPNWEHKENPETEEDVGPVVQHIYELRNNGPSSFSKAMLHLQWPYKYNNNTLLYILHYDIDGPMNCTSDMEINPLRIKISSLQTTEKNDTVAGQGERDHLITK
- Sequence (P06756 891-1048 partner limits assumed): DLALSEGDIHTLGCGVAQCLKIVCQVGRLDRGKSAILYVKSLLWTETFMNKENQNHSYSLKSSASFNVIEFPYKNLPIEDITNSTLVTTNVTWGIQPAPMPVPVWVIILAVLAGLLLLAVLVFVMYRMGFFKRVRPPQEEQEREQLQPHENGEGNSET
- Sequence (P05106 27-788): as the sequence (P05106 27-788) above
- PROTOCOL_NOTES: Human Vitronectin-Vitronectin Receptor (av b3) ELISA Assay (Vn/VnR)
- Type: binding
- STUDY_CONDITIONS: Example 30, G # table
Counter-ions that a name gives are not always drawn.
METRIC: IC50

Task: Bench note: what IC50 did N=C(N)NCCCC#Cc1ccc2c(c1)C(=O)N(CCC(=O)O)CC(=O)N2Cc1cccc(NC(=O)CNC(=N)N)c1 [Cmpd 107] show?
Output: > 10 µM

Task: # iterate: NCCCCCc1ccc2c(c1)C(=O)N(CCC(=O)O)CC(=O)N2C(c1ccccc1)c1ccccc1 [Cmpd 68, trifluoroacetate]
Output: > 10 µM

Task: What do we get for CN1C(=O)CN(CCC(=O)O)C(=O)c2cc(C#CCCCN)ccc21 [Cmpd 33] ?
Output: > 10 µM

* * *

Kindly state IC50 for each of the entries shown.
- ASSAYED_SYSTEM: GP IIb IIIa (Homo sapiens, UniProt P05106+P08514)
- Construct: from tissue; host or cells: outdated human platelets
- PROTOCOL_NOTES: Fibrinogen-GP IIb IIIa Receptor ELISA Binding Assay (Fg/IIbIIIa)
- STUDY_CONDITIONS: Example 30, G # table; read-out: IC50 (μM) Fg/IIbIIIa
Structures can show the parent of a compound that is named as a salt.

Task: I would be grateful if you could share the reported IC50 for "CN1C(=O)CN(CCC(=O)O)C(=O)c2cc(C#CCCCN)ccc21" .
Output: 0.096 µM

Task: "CN1C(=O)CN(CCC(=O)O)C(=O)c2cc(C#CCCCNC(=N)N)ccc21" , same question.
Output: 0.0036 µM

Task: Cool, now "CN1C(=O)CN(CCC(=O)O)C(=O)c2cc(C#Cc3ccc(CNC(=N)N)cc3)ccc21"
Output: 0.012 µM

Task: Can you handle "NCCCCCCc1ccc2c(c1)C(=O)N(CCC(=O)O)CC(=O)N2Cc1cccc(NC(=O)CCCN)c1" next?
Output: 0.008 µM

Task: Record: "NCCCCCCc1ccc2c(c1)C(=O)N(CCC(=O)O)CC(=O)N2Cc1cccc2ccccc12"
Output: 0.015 µM

Task: What would you report for "NCCCCCCc1ccc2c(c1)C(=O)N(CCC(=O)O)CC(=O)N2Cc1cccc(N)c1" ?
Output: 0.01 µM

Task: Would you mind doing "CN1C(=O)CN(CCC(=O)O)C(=O)c2cc(CCCCCN)ccc21" as well?
Output: 1.9 µM

Task: Try "NCCCCCCc1ccc2c(c1)C(=O)N(CCC(=O)O)CC(=O)N2Cc1cccc(NC(=O)CCCCCN)c1" next.
Output: 0.011 µM

Task: # repeat for CC(CC(=O)O)N1CC(=O)N(C)c2ccc(C#CCCCNC(=N)N)cc2C1=O (stereo not shown)
Output: 0.018 µM

Task: Follow-up entry: "N=C(N)NCCCCCc1ccc2c(c1)C(=O)N(CCC(=O)O)CC(=O)N2Cc1ccc2ccccc2c1"
Output: 0.011 µM

Task: Try this compound next: NCCCCCCc1ccc2c(c1)C(=O)N(CCC(=O)O)CC(=O)N2C(c1ccccc1)c1ccccc1 [Cmpd 72, trifluoroacetate]
Output: 0.022 µM

Task: Also "CCCCC(=O)Nc1cccc(CN2C(=O)CN(CCC(=O)O)C(=O)c3cc(CCCCCCN)ccc32)c1" ?
Output: 0.015 µM

Task: "CCCCC(=O)Nc1cccc(CN2C(=O)CN(CCC(=O)O)C(=O)c3cc(CCCCCCNC(=N)N)ccc32)c1" ?
Output: 0.012 µM

Task: "N=C(N)Nc1ccc(C(=O)Nc2cccc(CN3C(=O)CN(CCC(=O)O)C(=O)c4cc(CCCCCCN)ccc43)c2)cc1" ?
Output: 0.008 µM

Task: # iterate: "N=C(N)NCCCCCCc1ccc2c(c1)C(=O)N(CCC(=O)O)CC(=O)N2Cc1cccc(NC(=O)CCNC(=N)N)c1"
Output: 0.01 µM

Task: Same lookup for "CN1C(=O)CN(CCC(=O)O)C(=O)c2cc(C#CCCCCNC(=N)N)ccc21" , please.
Output: 0.009 µM
